- Test system: BEAS-2B
- PROTOCOL DETAILS: MTT viability assay, BEAS-2B
- Type: cell-based
- CONDITION: Homo sapiens, 72 h of incubation, mean of three experiments ± SD

MOLECULE: CN(C)CCCN1c2cnc3ccccc3c2Sc2cc3ccccc3nc21
REL: =
IC50 [nM]: 11300

MOLECULE: COc1cccc2c1C(=O)c1c(O)c3c(c(O)c1C2=O)C[C@@](O)(C(=O)CO)C[C@@H]3O[C@H]1C[C@H](N)[C@H](O)[C@H](C)O1 [doxorubicin, reference compound]
REL: <
IC50 [nM]: 1560

MOLECULE: c1cnc2c(c1)Nc1ccncc1S2 [DPT-1, 10H-3,6-diazaphenothiazine]
REL: =
IC50 [nM]: 2470

###

The entries below come with measured pIC50 values attached.
- System: human lung carcinoma A549 and non-small lung carcinoma H1299
- PROTOCOL DETAILS: MTT viability assay, summary over lung carcinoma lines
- Type: cell-based
- CONDITION: range over DPT-1 and DPT-2 in A549 and H1299
pIC50: −log10 of the molar value.
TEST READOUT: pIC50

COMPOUND: c1cnc2c(c1)Nc1ccncc1S2 [DPT-1, 10H-3,6-diazaphenothiazine]
MEASURED RESULT: 4.89 to 5.82
--
COMPOUND: CN(C)CCCN1c2cnc3ccccc3c2Sc2cc3ccccc3nc21
MEASURED RESULT: 4.89 to 5.82

###

- System: A549
- PROTOCOL DETAILS: MTT viability assay, A549
- Assay type: cell-based
- CONDITION: Homo sapiens, A549, 72 h of incubation, mean of three experiments ± SD

MOLECULE: c1cnc2c(c1)Nc1ccncc1S2 [DPT-1, 10H-3,6-diazaphenothiazine]
IC50: 1.53 µM

MOLECULE: COc1cccc2c1C(=O)c1c(O)c3c(c(O)c1C2=O)C[C@@](O)(C(=O)CO)C[C@@H]3O[C@H]1C[C@H](N)[C@H](O)[C@H](C)O1 [doxorubicin, reference compound]
IC50: 5.29 µM

MOLECULE: CN(C)CCCN1c2cnc3ccccc3c2Sc2cc3ccccc3nc21
IC50: 3.45 µM

meta.source: paper PMC9413739
